# Tested on: HCC1599
# Procedure Text: normalised response (% of control), CellTox Green; higher = less cell death (100 = DMSO, 0 = benzethonium chloride kill control)
# Experimental Setup: incubation time: 72 h
Below is a list of entries, each paired with its recorded normalised response value.
Record the value in %, omitting the unit from your answer.

Could you share which normalised response value was measured for Nc1nc2[nH]cnc2c(=S)[nH]1 [Thioguanine] (1000 nM) ?
97.8

Next:
Could you share which normalised response value was measured for Cc1sc2c(c1C)C(c1ccc(Cl)cc1)=N[C@@H](CC(=O)OC(C)(C)C)c1nnc(C)n1-2 [(+)JQ1] (1000 nM) ?
95.5

Now the same for CC1(C)CNc2cc(NC(=O)c3cccnc3NCc3ccncc3)ccc21 [Motesanib] (1000 nM)
97.3

Now the same for CC1=C2C[C@H]3[C@@H](CC=C4C[C@@H](O)CC[C@@]43C)[C@@H]2CC[C@]12O[C@@H]1C[C@H](C)CN[C@H]1[C@H]2C [Cyclopamine] (1000 nM)
104

Now the same for CC1(C)CNc2cc(NC(=O)c3cccnc3NCc3ccncc3)ccc21 [Motesanib] (10000 nM)
108

Now the same for CC1(C)CCC(CN2CCN(c3ccc(C(=O)NS(=O)(=O)c4ccc(NCC5CCOCC5)c([N+](=O)[O-])c4)c(Oc4cnc5[nH]ccc5c4)c3)CC2)=C(c2ccc(Cl)cc2)C1 [ABT-199] (10000 nM)
105

Now the same for COc1cc(F)c(F)c(Nc2ccc(I)cc2F)c1NS(=O)(=O)C1(C[C@H](O)CO)CC1 [Refametinib] (1000 nM)
95.8

Now the same for O=NN(CCCl)C(=O)NCCCl [Carmustine] (100 nM)
97.9

Now the same for CC(=O)N(O)CCCCCNC(=O)CCC(=O)N(O)CCCCCNC(=O)CCC(=O)N(O)CCCCCN [Deferoxamine] (10000 nM)
92.8

Now the same for Cc1ccc([N+](=O)[O-])cc1S(=O)(=O)N(C)/N=C/c1cnc2ccc(Br)cn12 [PIK-75] (10000 nM)
72.6

Now the same for Cc1ccc([N+](=O)[O-])cc1S(=O)(=O)N(C)/N=C/c1cnc2ccc(Br)cn12 [PIK-75] (100 nM)
79.3

Now the same for COc1cc2c(cc1O)CC[C@@H]1[C@@H]2CC[C@]2(C)[C@@H](O)CC[C@@H]12 [2-methoxyestradiol] (1000 nM)
93.5

Now the same for Oc1ncnc2[nH]ncc12 [Allopurinol] (100 nM)
104

Now the same for Cn1cc(C2=Nc3cc(NC(=O)C(N)C4CCCCC4)cc4c3C2=CNNC4=O)cn1 (stereo unspecified) (1000 nM)
73.3

Now the same for Cc1ccc([N+](=O)[O-])cc1S(=O)(=O)N(C)/N=C/c1cnc2ccc(Br)cn12 [PIK-75] (1000 nM)
62.1

Now the same for Oc1ncnc2[nH]ncc12 [Allopurinol] (10000 nM)
102
